Please go through the items and note down their MIC.
Test system: Streptococcus pyogenes
Assay: Antibacterial activity against Streptococcus pyogenes 3 expressing mefA efflux pump after 20 hrs by agar dilution method
Format: functional
Details: Streptococcus pyogenes, 3, 20 h
The reply should contain only the number, in µg/mL.

# input compound: CC[C@H]1OC(=O)[C@H](C)[C@@H](O[C@H]2C[C@@](C)(OC)[C@@H](O)[C@H](C)O2)[C@H](C)[C@@H](O[C@@H]2O[C@H](C)C[C@H](N(C)C)[C@H]2O)[C@](C)(OC)C[C@@H](C)C(=O)[C@H](C)[C@@H](O)[C@]1(C)O ; wanted: its MIC 8

// query: CCC(=O)O[C@@H]1CC(=O)O[C@@H](C/C=C/c2cnc3ccccc3c2)CCCN(C)C[C@H](O)[C@H](C)C[C@H](CC=O)[C@H](O[C@@H]2O[C@H](C)[C@@H](O[C@H]3C[C@@](C)(OC(=O)CC)[C@@H](OC(=O)N(C)C)[C@H](C)O3)[C@H](N(C)C)[C@H]2O)[C@H]1OC 0.06

// query: CCNC(=O)O[C@H]1[C@H](C)O[C@@H](O[C@H]2[C@H](N(C)C)[C@@H](O)[C@H](O[C@H]3[C@@H](CC=O)C[C@@H](C)[C@@H](O)CN(C)CCC[C@H](C/C=C/c4ccc5ccccc5c4)OC(=O)C[C@@H](OC(=O)CC)[C@@H]3OC)O[C@@H]2C)C[C@@]1(C)OC(=O)CC 0.5

// query: CCNC(=O)O[C@H]1[C@H](C)O[C@@H](O[C@H]2[C@H](N(C)C)[C@@H](O)[C@H](O[C@H]3[C@@H](CC=O)C[C@@H](C)[C@@H](O)CN(C)CCC[C@H](C/C=C/c4cnc5ccccc5c4)OC(=O)C[C@@H](O)[C@@H]3OC)O[C@@H]2C)C[C@@]1(C)OC(=O)CC 0.06

###

Tested on: Streptococcus pneumoniae
Assay: Antibacterial activity against Streptococcus pneumoniae 7 expressing constitutive ermB methylase after 20 hrs by agar dilution method
Assay type: functional
Conditions: Streptococcus pneumoniae, 7, 20 h
Observable: MIC (µg/mL)
The reply should contain only the number, in µg/mL.

# input molecule: CCNC(=O)O[C@H]1[C@H](C)O[C@@H](O[C@H]2[C@H](N(C)C)[C@@H](O)[C@H](O[C@H]3[C@@H](CC=O)C[C@@H](C)[C@@H](O)CN(C)CCC[C@H](C/C=C/c4ccc(N)nc4)OC(=O)C[C@@H](OC(=O)CC)[C@@H]3OC)O[C@@H]2C)C[C@@]1(C)OC(=O)CC ; wanted: its MIC 8

// query: CCNC(=O)O[C@H]1[C@H](C)O[C@@H](O[C@H]2[C@H](N(C)C)[C@@H](O)[C@H](O[C@H]3[C@@H](CC=O)C[C@@H](C)[C@@H](O)CN(C)CCC[C@H](C/C=C/c4cncc5ccccc45)OC(=O)C[C@@H](O)[C@@H]3OC)O[C@@H]2C)C[C@@]1(C)OC(=O)CC 4

// query: CCNC(=O)O[C@H]1[C@H](C)O[C@@H](O[C@H]2[C@H](N(C)C)[C@@H](O)[C@H](O[C@H]3[C@@H](CC=O)C[C@@H](C)[C@@H](O)CN(C)CCC[C@H](C/C=C/c4cnc5ccccc5c4)OC(=O)C[C@@H](OC(=O)CC)[C@@H]3OC)O[C@@H]2C)C[C@@]1(C)OC(=O)CC 16

// query: CCC(=O)O[C@@H]1CC(=O)O[C@@H](C/C=C/c2ccc3ccccc3c2)CCCN(C)C[C@H](O)[C@H](C)C[C@H](CC=O)[C@H](O[C@@H]2O[C@H](C)[C@@H](O[C@H]3C[C@@](C)(O)[C@@H](OC(=O)CC)[C@H](C)O3)[C@H](N(C)C)[C@H]2O)[C@H]1OC 32

// query: CCCNC(=O)O[C@H]1[C@H](C)O[C@@H](O[C@H]2[C@H](N(C)C)[C@@H](O)[C@H](O[C@H]3[C@@H](CC=O)C[C@@H](C)[C@@H](O)CN(C)CCC[C@H](C/C=C/c4cnc5ccccc5c4)OC(=O)C[C@@H](OC(=O)CC)[C@@H]3OC)O[C@@H]2C)C[C@@]1(C)OC(=O)CC 16

// query: CCC(=O)O[C@@H]1CC(=O)O[C@@H](C/C=C/c2cnc3ccccc3c2)CCCN(C)C[C@H](O)[C@H](C)C[C@H](CC=O)[C@H](O[C@@H]2O[C@H](C)[C@@H](O[C@H]3C[C@@](C)(OC(=O)CC)[C@@H](OC(=O)NC)[C@H](C)O3)[C@H](N(C)C)[C@H]2O)[C@H]1OC 32
